biological target: UniProt Q8VGJ1; details: stereoisomer not certain
Sequence (Q8VGJ1 as listed by the source): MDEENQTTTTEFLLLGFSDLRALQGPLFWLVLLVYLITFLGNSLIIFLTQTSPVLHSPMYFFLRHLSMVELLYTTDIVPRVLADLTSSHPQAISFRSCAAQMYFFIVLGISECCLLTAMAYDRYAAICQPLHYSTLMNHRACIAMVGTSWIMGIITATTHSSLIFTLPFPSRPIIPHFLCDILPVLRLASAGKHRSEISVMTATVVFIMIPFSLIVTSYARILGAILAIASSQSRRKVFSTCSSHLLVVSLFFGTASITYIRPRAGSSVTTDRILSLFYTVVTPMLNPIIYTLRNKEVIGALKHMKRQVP
Select the correct class. Options are active, inactive and nothing else.

-- ask Just curious, what result did `CCCCC(C)=O` get here?
-- reply inactive

-- ask Just curious, what result did `CCCCCCCCCCO` get here?
-- reply inactive

-- ask Just curious, what result did `CCCCCCCC(=O)[O-].[H+]` get here?
-- reply inactive

-- ask Just curious, what result did `CCCCCCO` get here?
-- reply inactive

-- ask Just curious, what result did `CCCCCC=O` get here?
-- reply inactive

-- ask Just curious, what result did `CCCCCO` get here?
-- reply inactive

-- ask Just curious, what result did CCC(C(=O)O)c1ccccc1 (centres undefined) get here?
-- reply inactive
